- Tested on: A549
- PROTOCOL_DETAILS: Antiproliferative activity against human A549 cells after 72 hrs by MTT assay
- Assay type: functional, cell-based
- EXPERIMENTAL_SETUP: A549, 72 h
REPORTED_METRIC: pIC50
Formally, pIC50 is defined as -log10 of the concentration c, with c in mol/L.

Note to self: pIC50 recorded for `CCN(CC)c1ccc2c(-c3ccccc3C(=O)NCCCCNC(=O)CSSCC(=O)n3nc(N)c4c(-c5ccc(NC(=O)Nc6cc(C)ccc6F)cc5)cccc43)c3ccc(=[N+](CC)CC)cc-3oc2c1` was 4.66
